# maps each entry to its inhibition at 10 µM
- protocol: Inhibition of fMLF/CB-induced superoxide anion generation in human neutrophil at 10 uM relative to control
- Format: functional

Requested read-out: inhibition at 10 µM. Entry: COc1ccc2c(=O)cc(Oc3ccccc3OC)oc2c1
3.8%

// query inhibition at 10 µM value for entry COc1cccc2oc(Sc3cccc(F)c3)cc(=O)c12
10.6%

Look at this compound and give its reported inhibition at 10 µM. COc1cc(OC)c2c(=O)cc(Oc3ccccc3OC)oc2c1
2.5%

More entries:
Endpoint output: inhibition at 10 µM of COc1cc(OC)c2c(=O)cc(Oc3ccc(OC)c(OC)c3)oc2c1 . Value?
7.8%

----------
Reported inhibition at 10 µM values for a set of compounds
- protocol: Inhibition of fMLF/CB-induced superoxide anion generation in human neutrophil at 10 uM relative to control
- Format: functional
// return numeric value only (unit: %, not printed)

Below: 5 compounds and their reported inhibition at 10 µM.
Quick check: inhibition at 10 µM of COc1cc(OC)c2c(=O)cc(Sc3cccc(F)c3)oc2c1 ?
61

Any idea what its inhibition at 10 µM is? The compound is COc1ccc2c(=O)cc(Oc3cccc(O)c3)oc2c1
6.9

Name the recorded inhibition at 10 µM for COc1cc(OC)cc(Oc2cc(=O)c3c(OC)cc(OC)cc3o2)c1 .
27.5

Report inhibition at 10 µM for COc1ccc(Oc2cc(=O)c3c(OC)cccc3o2)cc1OC please.
12.8

Query (compound): COc1cccc(Oc2cc(=O)c3c(OC)cc(OC)cc3o2)c1 ; field requested: inhibition at 10 µM
22.4

// below: inhibition at 10 µM requested for another compound
Can you look up the measured inhibition at 10 µM of COc1ccc2c(=O)cc(Oc3ccc(O)c(OC)c3)oc2c1 for me?
71.3

----------
- protocol: Inhibition of fMLF/CB-induced superoxide anion generation in human neutrophil at 10 uM relative to control
- Format: functional
metric name: inhibition at 10 µM (%)
Output spec: scalar in %, unitless text.

Field request: inhibition at 10 µM | item: COc1cccc(Oc2cc(=O)c3ccc(OC)cc3o2)c1
46.8

State the recorded inhibition at 10 µM for this entry: COc1ccc2c(=O)cc(Sc3cccc(F)c3)oc2c1
70.9

# query: inhibition at 10 µM of entry COc1cc2oc(Sc3cccc(F)c3)cc(=O)c2c(OC)c1OC
47.5

Value lookup for inhibition at 10 µM; key = O=c1cc(N2CCOCC2)oc2c(-c3ccccc3)cccc12
93.4

Which inhibition at 10 µM is listed for COc1ccc2oc(Sc3cccc(F)c3)cc(=O)c2c1 ?
17.3

Continue with the next compound.
Reported inhibition at 10 µM, compound COc1cc(OC)cc(Oc2cc(=O)c3c(OC)cccc3o2)c1 : ____
-0.4
